target: human thrombin (Homo sapiens, UniProt P00734); construct: bovine trypsin, human thrombin; format: biochemical; details: Table II; 0.07 μM thrombin, 0.25-42 μM inhibitor, 80 mM Hepes pH 7.5, 428 mM NaCl, 8% DMSO, 25° C.; NI = no inhibition
value.kind: kobs /[I] human thrombin (M⁻¹ s⁻¹)
Answer format: numeric, M⁻¹ s⁻¹ implied, no suffix.

Query :: State its kobs /[I] human thrombin on human thrombin (Homo sapiens, UniProt P00734): N=C(N)c1ccc(C(NC(=O)CCC(=O)O)P(=O)(Oc2ccccc2)Oc2ccccc2)cc1 (centres unmarked) [Suc-(4-AmPhGly)^P (OPh)2]
Result :: 2

Query :: State its kobs /[I] human thrombin on human thrombin (Homo sapiens, UniProt P00734): N=C(N)c1ccc(C(NC(=O)C(Cc2c[nH]c3ccccc23)NC(=O)OCc2ccccc2)P(=O)(Oc2ccccc2)Oc2ccccc2)cc1 (mixture of isomers) [Cbz--Trp-(4-AmPhGly)^P (OPh)2]
Result :: 1.2

Query :: State its kobs /[I] human thrombin on human thrombin (Homo sapiens, UniProt P00734): CC(NC(=O)C(CC(=O)O)NC(=O)OCc1ccccc1)C(=O)NC(c1ccc(C(=N)N)cc1)P(=O)(Oc1ccccc1)Oc1ccccc1 (mixture of isomers) [Cbz--Asp--Ala-(4-AmPhGly)^P (OPh)2]
Result :: 110

###

biological target: mast cell tryptase (Homo sapiens); experiment: Inactivation rate of mast cell tryptase, incubation method; format: biochemical; details: Table III; enzyme 0.06-0.5 μM, inhibitor 0.25-42 μM, 9% DMSO, 25° C.; NI = no inhibition
Sequence (Q15661 31-275): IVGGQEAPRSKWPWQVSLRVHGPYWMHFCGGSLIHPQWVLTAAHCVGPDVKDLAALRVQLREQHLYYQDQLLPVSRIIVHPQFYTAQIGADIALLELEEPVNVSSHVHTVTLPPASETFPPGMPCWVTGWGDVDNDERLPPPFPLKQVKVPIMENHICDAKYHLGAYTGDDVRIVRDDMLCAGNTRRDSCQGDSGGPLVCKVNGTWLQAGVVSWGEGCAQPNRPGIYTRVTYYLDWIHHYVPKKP
value.kind: kobs /[I] mast cell tryptase (M⁻¹ s⁻¹)
Answer format: numeric, M⁻¹ s⁻¹ implied, no suffix.

Query :: Can you share its kobs /[I] mast cell tryptase? I mean this molecule: CC(C)(C)OC(=O)NC(Cc1ccccc1)C(=O)N1CCCC1C(=O)NC(CCCCN)P(=O)(Oc1ccccc1)Oc1ccccc1 (mixture of isomers)
Result :: 68

Query :: Can you share its kobs /[I] mast cell tryptase? I mean this molecule: NCCCCCC(NC(=O)C1CCCN1C(=O)CNS(=O)(=O)Cc1ccccc1)P(=O)(Oc1ccccc1)Oc1ccccc1 (mixture of isomers)
Result :: 32

Query :: Can you share its kobs /[I] mast cell tryptase? I mean this molecule: CC(C)C(NC(=O)CCC(=O)O)C(=O)N1CCCC1C(=O)NC(CCCCCN)P(=O)(Oc1ccccc1)Oc1ccccc1 (mixture of isomers)
Result :: 4.1

Query :: Can you share its kobs /[I] mast cell tryptase? I mean this molecule: Cl.NCCCCCC(NC(=O)[C@@H]1CCCN1C(=O)c1ccccc1Oc1ccccc1)P(=O)(Oc1ccccc1)Oc1ccccc1 (stereo partly drawn)
Result :: 7.7

Query :: Can you share its kobs /[I] mast cell tryptase? I mean this molecule: NCCCCCC(NC(=O)[C@@H]1CCCN1C(=O)CC(c1ccccc1)c1ccccc1)P(=O)(Oc1ccccc1)Oc1ccccc1 (stereo partly drawn)
Result :: 1.1

###

Target: plasmin (Homo sapiens)
Construct: factor Xa, plasmin, and urokinase
Sequence (P00747 581-810 limits assumed, species assumed): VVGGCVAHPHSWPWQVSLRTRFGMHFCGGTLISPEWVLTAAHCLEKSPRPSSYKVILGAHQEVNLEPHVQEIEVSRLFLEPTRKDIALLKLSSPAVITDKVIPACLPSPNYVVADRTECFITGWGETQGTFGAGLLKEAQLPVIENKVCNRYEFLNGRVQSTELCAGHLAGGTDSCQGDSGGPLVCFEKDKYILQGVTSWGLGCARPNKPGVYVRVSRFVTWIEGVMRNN
Sequence (P00747 97-580 partner limits assumed, species assumed): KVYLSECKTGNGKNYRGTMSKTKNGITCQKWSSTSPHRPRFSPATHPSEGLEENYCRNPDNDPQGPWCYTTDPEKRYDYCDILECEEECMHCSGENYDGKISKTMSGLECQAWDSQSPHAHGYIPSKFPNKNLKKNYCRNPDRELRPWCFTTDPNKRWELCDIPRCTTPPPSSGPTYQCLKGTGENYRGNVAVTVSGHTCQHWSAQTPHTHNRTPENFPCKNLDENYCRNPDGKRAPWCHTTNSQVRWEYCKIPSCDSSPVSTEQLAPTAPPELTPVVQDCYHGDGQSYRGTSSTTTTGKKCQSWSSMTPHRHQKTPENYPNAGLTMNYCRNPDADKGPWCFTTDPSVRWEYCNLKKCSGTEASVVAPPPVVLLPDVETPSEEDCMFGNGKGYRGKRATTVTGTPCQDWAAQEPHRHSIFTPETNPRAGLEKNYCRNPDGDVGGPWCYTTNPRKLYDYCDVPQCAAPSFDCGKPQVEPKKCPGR
Assay: Inactivation rate of plasmin, incubation method
Assay type: biochemical
Conditions: Table III; enzyme 0.06-0.5 μM, inhibitor 0.25-42 μM, 9% DMSO, 25° C.; NI = no inhibition
Experimental: Inactivation rates of serine proteases by aryl diesters of peptidyl derivatives of α-aminoalkylphosphonates were measured by the incubation method. […] Aliquots (50 μl) were withdrawn at various intervals and the residual enzymatic activity was measured. […] All peptide thioesters hydrolysis rates were measured with the assay mixture containing 4,4'-dithiodipyridine {ε324 =19800 M^-1 cm^-1; Grasetti & Murray, Arch. […] residual enzymatic activity was measured as described in experimental […]
Could you please report measured kobs /[I] plasmin for the items listed next?
Phrase the answer as number then unit, nothing more needed.

Query :: Can you share its kobs /[I] plasmin? I mean this molecule: CC(C)(C)OC(=O)NC(Cc1ccccc1)C(=O)N1CCCC1C(=O)NC(CCCCN)P(=O)(Oc1ccccc1)Oc1ccccc1 (mixture of isomers)
Result :: 51 ± 4 M⁻¹ s⁻¹

Query :: Can you share its kobs /[I] plasmin? I mean this molecule: NCCCCCC(NC(=O)C1CCCN1C(=O)CNS(=O)(=O)Cc1ccccc1)P(=O)(Oc1ccccc1)Oc1ccccc1 (mixture of isomers)
Result :: 8.4 ± 0.2 M⁻¹ s⁻¹

Query :: Can you share its kobs /[I] plasmin? I mean this molecule: NCCCCC(NC(=O)[C@@H]1CCCN1C(=O)CC(c1ccccc1)c1ccccc1)P(=O)(Oc1ccccc1)Oc1ccccc1 (stereo partly drawn)
Result :: 7.0 ± 0.2 M⁻¹ s⁻¹

Query :: Can you share its kobs /[I] plasmin? I mean this molecule: Cl.NCCCCC(NC(=O)[C@@H]1CCCN1C(=O)c1ccccc1Oc1ccccc1)P(=O)(Oc1ccccc1)Oc1ccccc1 (stereo partly drawn)
Result :: 7.1 ± 0.2 M⁻¹ s⁻¹

Query :: Can you share its kobs /[I] plasmin? I mean this molecule: Cl.NCCCCC(NC(=O)[C@@H]1CCCN1C(=O)c1cccc(Oc2ccccc2)c1)P(=O)(Oc1ccccc1)Oc1ccccc1 (stereo partly drawn)
Result :: 7.4 ± 0.6 M⁻¹ s⁻¹

Query :: Can you share its kobs /[I] plasmin? I mean this molecule: Cl.NCCCCCC(NC(=O)[C@@H]1CCCN1C(=O)c1cccc(Oc2ccccc2)c1)P(=O)(Oc1ccccc1)Oc1ccccc1 (stereo partly drawn)
Result :: 4.6 ± 0.1 M⁻¹ s⁻¹

Query :: Can you share its kobs /[I] plasmin? I mean this molecule: NCCCCC(NC(=O)C1CCCN1C(=O)CNS(=O)(=O)Cc1ccccc1)P(=O)(Oc1ccccc1)Oc1ccccc1 (mixture of isomers)
Result :: 13 ± 1 M⁻¹ s⁻¹

Query :: Can you share its kobs /[I] plasmin? I mean this molecule: Cl.NCCCCC(NC(=O)OCc1ccccc1)P(=O)(Oc1ccccc1)Oc1ccccc1 (stereo not drawn)
Result :: 8.2 ± 0.4 M⁻¹ s⁻¹

Query :: Can you share its kobs /[I] plasmin? I mean this molecule: Cl.NCCCCCC(NC(=O)[C@@H]1CCCN1C(=O)c1ccccc1Oc1ccccc1)P(=O)(Oc1ccccc1)Oc1ccccc1 (stereo partly drawn)
Result :: 3.6 ± 0.4 M⁻¹ s⁻¹

###

Could you please report measured kobsd /[I] mast cell tryptase for the items listed next?
target: mast cell tryptase (Homo sapiens); assay: Inactivation rate of mast cell tryptase, incubation method; assay type: biochemical; conditions: Table I; 0.1M Hepes, 10% glycerol, 10 mM heparin, pH 7.5, 25° C., 7.1% DMSO; NI = no inhibition after 25 min of incubation
Phrase the answer as number then unit, nothing more needed.

Query :: Can you share its kobsd /[I] mast cell tryptase? I mean this compound: C[C@H](NC(=O)OCc1ccccc1)C(=O)N[C@@H](C)C(=O)NC(c1ccc(C(=N)N)cc1)P(=O)(Oc1ccccc1)Oc1ccccc1 (some centres unmarked) [Cbz--Ala--Ala-(4-AmPhGly)^P (OPh)2]
Result :: 2 M⁻¹ s⁻¹

Query :: Can you share its kobsd /[I] mast cell tryptase? I mean this compound: CC(C)(C)OC(=O)N[C@H](Cc1ccccc1)C(=O)N1CCC[C@H]1C(=O)NC(c1ccc(C(=N)N)cc1)P(=O)(Oc1ccccc1)Oc1ccccc1.Cl (stereo partly drawn) [Boc--D--Phe--Pro-(4-AmPhGly)^P (OPh)2]
Result :: 0.4 M⁻¹ s⁻¹

Query :: Can you share its kobsd /[I] mast cell tryptase? I mean this compound: CC(C)CC(NC(=O)OCc1ccccc1)C(=O)NC(c1ccc(C(=N)N)cc1)P(=O)(Oc1ccccc1)Oc1ccccc1 (mixture of isomers) [Cbz--Leu-(4-AmPhGly)^P (OPh)2]
Result :: 0.3 M⁻¹ s⁻¹

Query :: Can you share its kobsd /[I] mast cell tryptase? I mean this compound: N=C(N)c1ccc(C(NC(=O)CCC(=O)O)P(=O)(Oc2ccccc2)Oc2ccccc2)cc1 (centres unmarked) [Suc-(4-AmPhGly)^P (OPh)2]
Result :: 0.2 M⁻¹ s⁻¹

Query :: Can you share its kobsd /[I] mast cell tryptase? I mean this compound: CC(NC(=O)C(Cc1ccccc1)NC(=O)OCc1ccccc1)C(=O)NC(c1ccc(C(=N)N)cc1)P(=O)(Oc1ccccc1)Oc1ccccc1 (mixture of isomers) [Cbz--Phe--Ala-(4-AmPhGly)^P (OPh)2]
Result :: 4 M⁻¹ s⁻¹

Query :: Can you share its kobsd /[I] mast cell tryptase? I mean this compound: N=C(N)c1ccc(C(NC(=O)C2CCCN2C(=O)CNS(=O)(=O)Cc2ccccc2)P(=O)(Oc2ccccc2)Oc2ccccc2)cc1 (mixture of isomers)
Result :: 2 M⁻¹ s⁻¹

Query :: Can you share its kobsd /[I] mast cell tryptase? I mean this compound: C[C@H](NC(=O)CCC(=O)O)C(=O)N[C@@H](C)C(=O)NC(c1ccc(C(=N)N)cc1)P(=O)(Oc1ccccc1)Oc1ccccc1 (some centres unmarked) [Suc--Ala--Ala-(4-AmPhGly)^P (OPh)2]
Result :: 0.7 M⁻¹ s⁻¹

Query :: Can you share its kobsd /[I] mast cell tryptase? I mean this compound: Cl.N=C(N)c1ccc(C(NC(=O)C=Cc2cccs2)P(=O)(Oc2ccccc2)Oc2ccccc2)cc1 (centres unmarked)
Result :: 1 M⁻¹ s⁻¹

Query :: Can you share its kobsd /[I] mast cell tryptase? I mean this compound: C[C@H](NC(=O)[C@@H]1CCCN1C(=O)OCc1ccccc1)C(=O)NC(c1ccc(C(=N)N)cc1)P(=O)(Oc1ccccc1)Oc1ccccc1 (some centres unmarked) [Cbz--Pro--Ala-(4-AmPhGly)^P (OPh)2]
Result :: 1 M⁻¹ s⁻¹

Query :: Can you share its kobsd /[I] mast cell tryptase? I mean this compound: Cl.N=C(N)c1ccc(C(NC(=O)[C@@H]2CCCN2C(=O)c2ccccc2Oc2ccccc2)P(=O)(Oc2ccccc2)Oc2ccccc2)cc1 (some centres unmarked)
Result :: 0.9 M⁻¹ s⁻¹

Query :: Can you share its kobsd /[I] mast cell tryptase? I mean this compound: Cl.N=C(N)c1ccc(C(NC(=O)[C@@H]2CCCN2C(=O)OCc2ccccc2)P(=O)(Oc2ccccc2)Oc2ccccc2)cc1 (some centres unmarked) [Cbz--Pro-(4-AmPhGly)^P (OPh)2]
Result :: 1.2 M⁻¹ s⁻¹
